Hey, just so you know, these numbers are from patent US11453711B2.

Experiment: Pharmacokinetic measurement in mouse, single sc dose 30 nmol/kg, plasma ELISA
Conditions: single sc dose 30 nmol/kg
Observation Type: AUC0-24 h (nmol·h/L)
The response must be a number in nmol·h/L with no trailing unit.

What does the data say about its AUC0-24 h? Entry: MLC009: fusion polypeptide SEQ ID NO: 256 conjugated with Moiety A at 15K of Linker (conjugate, Moiety A conjugated at linker K15) HGEGTFTSDVSSYLEEQAAREFIAWLVRGGGGQEPGQEPGQEPGQKPGQEPGQEPGQEPGQEPGAQPGAQPARQGDHCPLGPGRCCRLHTVRASLEDLGWADWVLSPREVQVTMCIGACPSQFRAANLHAQIKTSLHRLRPDTVPAPCCVPASYNPMVLIQRTDTGVSLQTYDDLLARDCHCI 157.8
